system: SW-620; assay: Growth inhibition of human SW620 cells assessed as cell growth at 10^-7 M incubated for 48 hrs by sulforhodamine B assay relative to control; format: functional; conditions: SW-620, 48 h, read-out: Activity
The compounds listed here are annotated with their growth at 0.1 µM.
Measurement Kind: growth at 0.1 µM (%)

C#C[C@@]1(O)[C@@H](CO)O[C@@H](n2cc(F)c3c(N)ncnc32)[C@@H]1O    61
C#C[C@@]1(O)[C@@H](CO)O[C@@H](n2ccc3c(N)ncnc32)[C@@H]1O    77
C#C[C@@]1(O)[C@@H](CO)O[C@@H](n2cc(I)c3c(N)ncnc32)[C@@H]1O    39

Just for reference, ChEMBL document CHEMBL4270599 is where these values come from.
